For each entry below, report its C. felis LC50 value.
- Test system: cat flea (Ctenocephalides felis)
- procedure text: Ctenocephalides felis adulticide assay: dose response (LC50)
- Assay type: in vivo
- measurement conditions: Laboratory 2 D data

> print(dat)
                                   molecule             val
1  C#CCO/N=C(\C)c1cc(Cl)ccc1NS(=O)(=O)C(F)(F)F  0.01^D μg/cm^2

// for each molecule below, give its C. felis LC50
1. CC/C(=N\OCCC(C)C)c1cc(Cl)ccc1NS(=O)(=O)C(F)(F)F
2. CC/C(=N\OCC1CCCCC1)c1cc(Cl)ccc1NS(=O)(=O)C(F)(F)F

["0.1^D μg/cm^2", "1.6 μg/cm^2"]

* * *

- Test system: Brown Dog Tick (Rhipicephalus sanguineus)
- procedure text: Dose response protocol for topical application on brown dog ticks (LD50)
- Type: in vivo
- measurement conditions: 24 h mortality
Classification field: enter 1 for R. sanguineus LD50 values not below 3 μg/tick, -1 for values below it.

> print(dat)
                                   compound  group.label
1  CC(C)/C(=N\Oc1ccc(Cl)cc1)c1cc(Cl)ccc1NS(=O)(=O)C(F)(F)F           -1
2  CC/C(=N\OC1CCCCC1)c1cc(Cl)ccc1NS(=O)(=O)C(F)(F)F            1

Does the compound `CC/C(=N\OCc1cccs1)c1cc(Cl)ccc1NS(=O)(=O)C(F)(F)F` have recorded R. sanguineus LD50 that is 3 μg/tick or more?
-1

// inclusive: R. sanguineus LD50 at least 3 μg/tick? input: C/C(=N\OC1C=CCCC1)c1cc(Cl)ccc1NS(=O)(=O)C(F)(F)F (stereo not drawn)
1

I'd appreciate it if you could say whether `C/C(=N\OC(C)C)c1ccc(C(F)(F)F)cc1NS(=O)(=O)C(F)(F)F` has R. sanguineus LD50 at least equal to 3 μg/tick.
-1

Tell me whether R. sanguineus LD50 is at least 3 μg/tick here: CC/C(=N\OCC1CCCO1)c1cc(Cl)ccc1NS(=O)(=O)C(F)(F)F (stereo not drawn)
1

Could you tell me if the measured R. sanguineus LD50 of `C#CCO/N=C(\C)c1cc(Cl)ccc1NS(=O)(=O)C(F)(F)F` reaches 3 μg/tick or more?
-1

Answer whether R. sanguineus LD50 of `C/C(=N\OCC1CCCC1)c1cc(Cl)ccc1NS(=O)(=O)C(F)(F)F` is greater than or equal to 3 μg/tick.
-1

* * *

- System: cat flea (Ctenocephalides felis)
- procedure text: Ctenocephalides felis adulticide assay: dose response (LC50)
- Type: in vivo
- measurement conditions: Laboratory 1 C data
Please respond with reported C. felis LC50 for every item in the list.
Answers are plain numbers, in μg/cm^2.

// known answers, use as guide
> print(dat)
                                   compound  units.of.measure  val
1  CC/C(=N\OCc1ccc(Cl)cc1Cl)c1cc(Cl)ccc1NS(=O)(=O)C(F)(F)F           μg/cm^2  0.2
2  CC/C(=N\OCc1ccccc1C(F)(F)F)c1cc(Cl)ccc1NS(=O)(=O)C(F)(F)F           μg/cm^2  0.1
3  CC/C(=N\OCCOc1ccccc1)c1cc(Cl)ccc1NS(=O)(=O)C(F)(F)F           μg/cm^2  1.0
4  C=CCO/N=C(\C)c1cc(Cl)ccc1NS(=O)(=O)C(F)(F)F           μg/cm^2  0.1
5  C/C(=N\OC1C=CCCC1)c1cc(Cl)ccc1NS(=O)(=O)C(F)(F)F (centres unmarked)           μg/cm^2  0.1

Give C. felis LC50 for each of the items listed below.
1. CC/C(=N\OCc1ccc(C(F)(F)F)cc1C(F)(F)F)c1cc(Cl)ccc1NS(=O)(=O)C(F)(F)F
2. CC/C(=N\OCC1CCCCC1)c1cc(Cl)ccc1NS(=O)(=O)C(F)(F)F
3. CC/C(=N\OCc1ccc(Cl)c(Cl)c1)c1cc(Cl)ccc1NS(=O)(=O)C(F)(F)F
4. C/C(=N\OCC(C)C)c1cc(Cl)ccc1NS(=O)(=O)C(F)(F)F
5. CC/C(=N\OCc1ccc(Br)cc1)c1cc(Cl)ccc1NS(=O)(=O)C(F)(F)F
6. CCC/C(=N\OCc1ccc(Cl)cc1Cl)c1cc(Cl)ccc1NS(=O)(=O)C(F)(F)F
7. CC/C(=N\OCc1cccc(Cl)c1Cl)c1cc(Cl)ccc1NS(=O)(=O)C(F)(F)F
8. C/C(=N\OC1CCCCC1)c1cc(Cl)ccc1NS(=O)(=O)C(F)(F)F

1. 0.2
2. 0.3
3. 0.6
4. 0.06
5. 0.3
6. 0.4
7. 0.5
8. 0.2
